Parameter % UTC (Yap1 mRNA): see the listing below.
# Test system: Yap1 mRNA
# Test: Dose-dependent inhibition of human Yap1 in A-431 cells (Example 8, 10,000 cells per well, RTS4814)
# Format: cell-based
# Run Parameters: 125.0 nM; A-431 cells
Strand notation (5' to 3'): a small letter for the sugar, then the base; units joined by * are phosphorothioate-linked, units joined directly phosphodiester-linked; [ ] holds rarer units or linkages, { } end groups; capitals alone tell only the bases. k = constrained ethyl (cEt); [5mC] = 5-methylcytosine; d = 2'-deoxy (DNA)
Report as: number unit

Give reported % UTC (Yap1 mRNA) value for 1076022 (kT*kA*kA*dT*dT*dA*dG*dA*dT*dG*d[5mC]*dT*dG*kA*k[5mC]*kA; antisense) [compound 1076022] 28 % UTC

// Input: 1076119 (kG*kT*kT*dA*dA*dA*dT*dA*dT*dG*dA*dA*dT*kT*kG*kG; antisense) [compound 1076119] . Output its % UTC (Yap1 mRNA) only. 35 % UTC
